Exercise: state measured Emax for each of the compounds provided.
- ASSAY_TARGET: huPPARγ (Homo sapiens)
- Sequence (P37231 whole entry): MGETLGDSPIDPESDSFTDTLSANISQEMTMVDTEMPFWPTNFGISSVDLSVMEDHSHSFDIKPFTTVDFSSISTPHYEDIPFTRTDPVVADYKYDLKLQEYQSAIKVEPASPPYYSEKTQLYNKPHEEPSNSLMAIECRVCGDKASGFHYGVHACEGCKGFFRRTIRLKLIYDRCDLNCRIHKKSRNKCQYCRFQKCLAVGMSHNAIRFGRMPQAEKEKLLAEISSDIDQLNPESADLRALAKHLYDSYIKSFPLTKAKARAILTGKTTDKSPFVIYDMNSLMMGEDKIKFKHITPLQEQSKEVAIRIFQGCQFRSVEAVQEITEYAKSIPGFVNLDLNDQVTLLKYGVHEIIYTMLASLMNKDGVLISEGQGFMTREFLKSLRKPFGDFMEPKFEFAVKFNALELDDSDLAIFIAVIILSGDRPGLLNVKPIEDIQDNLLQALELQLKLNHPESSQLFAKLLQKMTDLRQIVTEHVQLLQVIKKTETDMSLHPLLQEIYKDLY
- Sequence (P19793 whole entry partner): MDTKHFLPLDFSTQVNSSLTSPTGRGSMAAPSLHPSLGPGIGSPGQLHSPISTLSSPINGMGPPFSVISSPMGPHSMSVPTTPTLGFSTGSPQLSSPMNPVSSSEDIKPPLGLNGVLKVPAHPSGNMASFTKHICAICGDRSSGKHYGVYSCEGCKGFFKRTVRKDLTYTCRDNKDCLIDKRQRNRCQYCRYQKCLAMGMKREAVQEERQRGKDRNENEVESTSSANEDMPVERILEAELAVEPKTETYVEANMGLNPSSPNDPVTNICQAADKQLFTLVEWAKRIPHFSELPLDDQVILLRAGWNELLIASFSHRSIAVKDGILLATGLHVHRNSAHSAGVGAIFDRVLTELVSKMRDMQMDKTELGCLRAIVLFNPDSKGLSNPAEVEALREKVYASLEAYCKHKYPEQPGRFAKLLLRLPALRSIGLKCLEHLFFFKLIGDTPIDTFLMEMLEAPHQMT
- ASSAY_TEXT: Cotransfection assay in CV-1 cells, AOX PPRE luciferase reporter
- Assay type: cell-based
- Parameters: expressed in transfected cells; host or cells: CV-1 cells
- REPORTED_CONDITIONS: cotransfection efficacy relative to PPARγ agonist reference molecule, read-out: huPPARγ CTF Eff. (%)
Give bare numbers, in %.

Examples with answers:
[
  {
    "COMPOUND": "Cc1oc(-c2ccccc2)nc1CCOc1ccc(OC(C)(C)C(=O)O)c(CC(C)C)c1 [Example 30C]",
    "MEASURED_PROPERTY": "Emax",
    "TEST_RESULT": 63
  },
  {
    "COMPOUND": "Cc1oc(-c2ccccc2)nc1CCOc1ccc(OC(C)(C)C(=O)O)c2c1CCCC2 [Example 38]",
    "MEASURED_PROPERTY": "Emax",
    "TEST_RESULT": 65
  },
  {
    "COMPOUND": "Cc1oc(-c2ccccc2)nc1CCOc1ccc(OC(C)(C)C(=O)O)c2ccccc12 [Example 37]",
    "MEASURED_PROPERTY": "Emax",
    "TEST_RESULT": 60
  },
  {
    "COMPOUND": "CCCc1cc(OCCc2nc(-c3ccccc3)oc2C)ccc1OC(C)(C)C(=O)O [Example 26A]",
    "MEASURED_PROPERTY": "Emax",
    "TEST_RESULT": 74
  }
]

We now examine a further compound.
Prompt: Write down Emax measured for item CCc1cc(OCCc2nc(-c3ccccc3)oc2C)ccc1OC(C)(C)C(=O)O [Example 30A]
Response: 92
